Test system: WiDr cells; colon tumour
assay_explanation: In vitro panel of human tumour lines (TNO): WiDr; note: key: -: no inhibition of cell growth; +: total cell-kill
Type: cell-based
measurement_setup: 0.1 μg/ml, about 72 hours

compound | experimental_target | in vitro activity score, WiDr
CCC1(O)CC2CN(CCc3c([nH]c4ccccc34)C(C(=O)OC)(c3cc4c(cc3OC)N(C)C3C(O)(C(=O)OC)C(OC(C)=O)C5(CC)C=CCN6CCC43C65)C2)C1 (stereo not shown) [Vinblast., reference compound] | WiDr cells; colon tumour | +
CO[C@@]12[C@H](COC(N)=O)C3=C(C(=O)C(C)=C(N)C3=O)N1C[C@@H]1N[C@@H]12 [MMC, mitomycin C, reference compound] | WiDr cells; colon tumour | -
COC(=O)OC/C=C/c1c(COC(=O)OC)c2c(n1C)C(=O)C=C(OC)C2=O | WiDr cells; colon tumour | -
N.N.[Cl][Pt][Cl] [Cisplatin, reference compound] | WiDr cells; colon tumour | -
